System: Italian ryegrass (Lolium multiflorum)
Assay: Test C postemergence
Type: in vivo
Conditions: 62 g ai/ha, scale 0 to 100, 0 is no effect, 100 is complete control
Parameter Plant response rating, Ryegrass, Italian: see the listing below.
Number, no unit, nothing else.

Consider the following illustrative entries.
For record "O=c1cccc(Oc2ncc(Cl)cn2)n1-c1ccc(C(F)(F)F)cn1" the listed Plant response rating, Ryegrass, Italian is 5

For record "O=c1cccc(Oc2ncc(Cl)cn2)n1-c1ccc(C(F)(F)F)cc1" the listed Plant response rating, Ryegrass, Italian is 10

For record "O=c1cccc(Oc2ncc(Cl)cn2)n1-c1ncc(Cl)cn1" the listed Plant response rating, Ryegrass, Italian is 0

// next entry
For record "O=c1cccc(Oc2ncc(Cl)cn2)n1-c1ccc(Cl)cc1" the listed Plant response rating, Ryegrass, Italian is 5
